Assay: Cell viability (cytotoxicity) assay
Type: cell-based
Details: human, MDA-MB-231 cells, 48 h treatment
READOUT LABEL: IC50 at 48 h (µM)
Answers are plain numbers, in µM.

For this molecule ( N=C(N)NC(=O)c1nc(-c2ccc(C(F)(F)F)cc2)c(N2CCCC2)nc1N ), measured IC50 at 48 h is 23.9

For record N=C(N)NC(=O)c1nc(-c2cc3cc(Cl)ccc3o2)c(N)nc1N the listed IC50 at 48 h is 4.4

New cases:
The reported value for COc1ccc2oc(-c3nc(C(=O)NC(=N)N)c(N)nc3N3CCCCCC3)cc2c1 in terms of IC50 at 48 h is 25.1

---

Target: NHE1 (Homo sapiens, UniProt P19634)
Construct: endogenous in cells; host or cells: MDA-MB-231
Sequence (P19634 whole entry): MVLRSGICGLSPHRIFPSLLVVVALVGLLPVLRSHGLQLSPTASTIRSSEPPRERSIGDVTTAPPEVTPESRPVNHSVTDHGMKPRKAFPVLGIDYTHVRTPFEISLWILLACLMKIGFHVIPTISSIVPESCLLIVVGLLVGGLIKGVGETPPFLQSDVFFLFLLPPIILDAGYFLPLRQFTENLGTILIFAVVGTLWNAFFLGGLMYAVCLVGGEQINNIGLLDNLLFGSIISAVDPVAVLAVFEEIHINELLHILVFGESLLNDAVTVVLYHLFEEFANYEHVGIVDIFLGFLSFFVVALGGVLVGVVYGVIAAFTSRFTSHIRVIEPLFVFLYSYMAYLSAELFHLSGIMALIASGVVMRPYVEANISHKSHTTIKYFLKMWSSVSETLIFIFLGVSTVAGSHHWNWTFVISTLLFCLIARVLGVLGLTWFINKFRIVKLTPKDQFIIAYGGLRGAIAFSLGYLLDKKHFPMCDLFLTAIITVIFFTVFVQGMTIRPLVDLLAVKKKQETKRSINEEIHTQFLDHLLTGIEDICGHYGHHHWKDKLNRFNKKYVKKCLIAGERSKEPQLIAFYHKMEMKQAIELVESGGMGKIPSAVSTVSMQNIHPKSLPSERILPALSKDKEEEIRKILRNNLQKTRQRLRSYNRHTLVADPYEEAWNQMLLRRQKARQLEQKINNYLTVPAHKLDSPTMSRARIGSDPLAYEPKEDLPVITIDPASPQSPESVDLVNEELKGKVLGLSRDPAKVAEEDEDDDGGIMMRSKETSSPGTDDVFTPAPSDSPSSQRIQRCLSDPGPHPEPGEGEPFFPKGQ
Test: Plate-based NHE1 inhibition assay (BCECF pHi recovery, 96-well plate reader)
Type: cell-based
Conditions: 1 μM, MDA-MB-231 cells, plate reader
Please respond with reported inhibition at 1 µM for every item in the list.
Numbers only, in %.

Examples with their reported inhibition at 1 µM follow.
Consider N=C(N)NC(=O)c1nc(-c2cc3ccccc3o2)c(N2CCCCCC2)nc1N [compound 5] . Its measured inhibition at 1 µM is 39

// recorded inhibition at 1 µM for COc1ccc2oc(-c3nc(C(=O)NC(=N)N)c(N)nc3N3CCCCCC3)cc2c1 [compound 15] : 34

Give one value of inhibition at 1 µM per listed molecule.
1. N=C(N)NC(=O)c1nc(-c2cc3ncccc3o2)c(N)nc1N [compound 20]
2. N=C(N)NC(=O)c1nc(Cl)c(N2CCCOCC2)nc1N [compound 30]
3. N=C(N)NC(=O)c1nc(Cl)c(N2CCOCC2)nc1N [compound 29]

(A)
[0, 91, 85]

---

Molecular target: urokinase from human kidney cells (human uPA) (Homo sapiens)
Construct: low molecular weight active human uPA; purchased Sigma-Aldrich U4010; host or cells: human kidney cells
Assay: uPA inhibition assay (fluorescence-based, purified enzyme)
Format: biochemical
Conditions: human uPA, fluorometric method, Figure S1; read-out: uPA IC50 (not reached at the highest concentration tested)
READOUT LABEL: IC50

// field: IC50; key: CC(=O)N1CCC(c2ccc(C(=O)NC(=N)N)cc2C(F)(F)F)CC1 [BI-9627, reference compound] ; value = > 50 µM

---

Assay: Cell viability (cytotoxicity) assay
Type: cell-based
Conditions: human, MDA-MB-231 cells, 48 h treatment
Protocol: On the day of treatment, respective compounds were serially diluted using a semi-logarithmic dilution series from 20 mM stocks in neat DMSO into DMEM-high glucose media (10% v/v FBS) in a separate 96-well plate and under sterile conditions. Thereafter, 10 μL of the diluted compounds at their respective concentrations (n = 4) were added to the cells. […] Blank-corrected data were analysed and graphed using GraphPad PRISM v8.0 software (GraphPad Software, San Diego, CA USA).
READOUT LABEL: IC50 at 48 h

Go through the list and state IC50 at 48 h for each entry.
1. N=C(N)NC(=O)c1nc(-c2ccc(C(F)(F)F)cc2)c(C2CC2)nc1N [compound 40]
2. N=C(N)NC(=O)c1nc(-c2cncnc2)c(N2CCCOCC2)nc1N [compound 42]
3. N=C(N)NC(=O)c1nc(-c2cnc(N)nc2)c(N2CCCCCC2)nc1N [compound 27]

(A)
1: 26.6 µM; 2: > 100 µM; 3: > 100 µM
